Data origin: patent US10596270B2

- Test System: T1, human FOLR1-HIS (Homo sapiens, UniProt P15328)
- T1 construct: HIS
- T1 sequence (P15328 25-234): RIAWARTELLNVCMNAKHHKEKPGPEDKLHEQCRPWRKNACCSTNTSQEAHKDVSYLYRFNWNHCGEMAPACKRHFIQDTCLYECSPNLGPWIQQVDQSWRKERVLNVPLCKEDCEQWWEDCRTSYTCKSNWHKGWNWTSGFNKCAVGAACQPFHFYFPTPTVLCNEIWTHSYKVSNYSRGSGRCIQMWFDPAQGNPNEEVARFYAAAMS
- Experiment: Biacore kinetics (surface plasmon resonance)
- Format: binding
- Details: humanized 6D1 (2060) antibodies, Table 9
// Biacore kinetics ka lookup, one value per entry
Measured Endpoint: Biacore kinetics ka (M⁻¹ s⁻¹)

{"Molecule": "SRP2060-A06 (antibody, V domains shown) VH: EVQLLESGGGLVQPGGSLRLSCAFSGFSLSTFGMGVGWVRQAPGKGLEWVGHIWWDDDKYYYPALKGRFTISKDNSKNTVYLQMNSLRAEDTAVYYCGRNHFPHYYGSSHWYFDVWGQGTTVTVSS VL: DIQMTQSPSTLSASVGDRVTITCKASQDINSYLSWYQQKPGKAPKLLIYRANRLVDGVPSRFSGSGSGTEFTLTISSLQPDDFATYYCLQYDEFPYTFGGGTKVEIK", "Measured Endpoint": "Biacore kinetics ka", "Experimental Result": 547000}
{"Molecule": "SRP2060-B01 (antibody, V domains shown) VH: EVQLLESGGGLVQPGGSLRLSCALSGFSLSTFGMGVGWVRQATGKGLEWVSHIWWDDDKYYHPALKGRFTISKDNSKNTVHLQMNSLRAEDTAVYYCGRNHFPHYYGSSHWYFNVWGQGTTVTVSS VL: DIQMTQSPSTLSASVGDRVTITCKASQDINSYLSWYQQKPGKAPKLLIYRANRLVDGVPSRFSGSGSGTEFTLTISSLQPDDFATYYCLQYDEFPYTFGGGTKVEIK", "Measured Endpoint": "Biacore kinetics ka", "Experimental Result": 561000}
{"Molecule": "SRP2060-E10: affinity-matured humanized 6D1; VH SEQ ID NO 363; VL H6D1-LC4 SEQ ID NO 368 (antibody, V domains shown, Synthetic SRP2060-E10, VH; Synthetic H6D1-LC4, VL) VH: EVQLLESGGGLVQPGGSLRLSCAFSGFSLSTFGMGVGWVRQAPGKGLEWVSHIWWDDDKYYHPALKGRFTISKDNSKNTVYLQMNSLRAEDTAVYYCGRNHFPHYYGSSHWYFNVWGQGTTVTVSS VL: EIVMTQSPATLSLSPGERATLSCKASQDINSYLSWYQQKPGQAPRLLIYRANRLVDGIPARFSGSGSGTDYTLTISSLEPEDFAVYYCLQYDEFPYTFGGGTKVEIK", "Measured Endpoint": "Biacore kinetics ka", "Experimental Result": 582000}
